Target: mouse BLyS protein (mouse, UniProt Q9WU72 69-309)
Sequence (Q9WU72 69-309): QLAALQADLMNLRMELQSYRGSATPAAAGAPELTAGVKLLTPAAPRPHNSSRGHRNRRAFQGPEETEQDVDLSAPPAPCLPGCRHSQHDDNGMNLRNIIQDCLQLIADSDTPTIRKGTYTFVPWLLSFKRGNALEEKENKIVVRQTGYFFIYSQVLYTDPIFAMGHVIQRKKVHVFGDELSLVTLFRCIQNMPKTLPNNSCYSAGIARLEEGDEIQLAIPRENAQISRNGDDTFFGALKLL
Test: cell-based or functional assay
readoutKind: mouse B lymphocyte proliferation (OD450 nm), antibody 0.16 nM
Unit OD450 nm implied. Number only.

Record excerpt, results attached:
# binder, outputUnit, observedMeasurement
data = [
    ("97A3C2H4 (antibody, V domains shown, Mouse hybridoma monoclonal antibody purified on Protein G) VH: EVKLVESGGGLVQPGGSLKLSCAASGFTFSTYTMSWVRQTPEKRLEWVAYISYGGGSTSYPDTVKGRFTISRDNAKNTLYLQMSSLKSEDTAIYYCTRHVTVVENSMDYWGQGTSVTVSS VL: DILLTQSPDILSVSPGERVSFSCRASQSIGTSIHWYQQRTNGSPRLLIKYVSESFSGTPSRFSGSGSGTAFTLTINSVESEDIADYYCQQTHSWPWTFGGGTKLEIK", "OD450 nm", 2300),
    ("2-1G11 (antibody, V domains shown, From a human naive scFv phage library; also called human BLyS antibody 2-1G11) VH: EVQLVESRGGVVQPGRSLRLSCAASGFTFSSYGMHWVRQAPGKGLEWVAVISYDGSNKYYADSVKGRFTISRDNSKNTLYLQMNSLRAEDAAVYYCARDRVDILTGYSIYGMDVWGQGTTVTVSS VL: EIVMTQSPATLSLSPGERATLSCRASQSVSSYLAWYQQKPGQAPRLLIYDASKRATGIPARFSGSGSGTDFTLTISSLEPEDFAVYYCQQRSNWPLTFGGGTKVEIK", "OD450 nm", 2750),
]

Kindly consider the entry below.
What does the record list as mouse B lymphocyte proliferation (OD450 nm), antibody 0.16 nM for 8E7D9C7F5 (antibody, V domains shown, Mouse hybridoma monoclonal antibody purified on Protein G) VH: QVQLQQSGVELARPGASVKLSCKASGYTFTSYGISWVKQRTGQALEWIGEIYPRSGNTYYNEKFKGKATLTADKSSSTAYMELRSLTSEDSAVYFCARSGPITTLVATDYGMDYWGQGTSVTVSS VL: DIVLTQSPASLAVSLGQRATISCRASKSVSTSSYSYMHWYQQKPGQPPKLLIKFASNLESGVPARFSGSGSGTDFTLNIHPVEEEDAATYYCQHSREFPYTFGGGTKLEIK ? 2350
